Sourced from patent US11261196B2

Molecular target: AKT3 (Homo sapiens)
Sequence (Q9Y243 whole entry): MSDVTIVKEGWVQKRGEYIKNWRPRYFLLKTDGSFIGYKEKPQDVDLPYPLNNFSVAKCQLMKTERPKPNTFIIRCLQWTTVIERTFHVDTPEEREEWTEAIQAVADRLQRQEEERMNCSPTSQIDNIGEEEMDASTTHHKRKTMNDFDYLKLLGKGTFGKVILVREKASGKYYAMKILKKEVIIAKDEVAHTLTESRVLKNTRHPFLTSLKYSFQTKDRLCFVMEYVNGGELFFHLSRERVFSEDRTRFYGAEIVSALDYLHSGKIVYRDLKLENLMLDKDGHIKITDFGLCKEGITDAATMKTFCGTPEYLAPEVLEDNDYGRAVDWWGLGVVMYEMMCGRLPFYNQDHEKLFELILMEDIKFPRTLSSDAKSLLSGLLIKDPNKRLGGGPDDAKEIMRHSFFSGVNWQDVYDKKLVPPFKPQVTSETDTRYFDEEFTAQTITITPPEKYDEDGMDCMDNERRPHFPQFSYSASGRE
quantity-measured: pIC50
Please report pIC50 as the negative decimal logarithm of the molar concentration, giving only the number.

QUERY: Could you please provide reported pIC50 for `Cc1cnn2c1-c1cc(C(=O)N[C@H](CN)Cc3cccc(F)c3)sc1CCC2.O=C(O)/C=C\C(=O)O` ? Thanks!
RESULT: 7.04

* * *

Assay: Solubility test of the crystal form in different solvents
Type: physicochemical
Details: 25 °C, aqueous buffer, thermodynamic from solid; 0.1N NaOH, 25±2° C.; read-out: Solubility classification
quantity-measured: solubility at 30 min

QUERY: Could you please provide reported solubility at 30 min for `Cc1cnn2c1-c1cc(C(=O)N[C@H](CN)Cc3cccc(F)c3)sc1CCC2.O=C(O)/C=C\C(=O)O` ? Thanks!
RESULT: < 100 µg/mL
